# system.tested: Prostaglandin G/H synthase 2 (Homo sapiens)
# Sequence (P35354 whole entry): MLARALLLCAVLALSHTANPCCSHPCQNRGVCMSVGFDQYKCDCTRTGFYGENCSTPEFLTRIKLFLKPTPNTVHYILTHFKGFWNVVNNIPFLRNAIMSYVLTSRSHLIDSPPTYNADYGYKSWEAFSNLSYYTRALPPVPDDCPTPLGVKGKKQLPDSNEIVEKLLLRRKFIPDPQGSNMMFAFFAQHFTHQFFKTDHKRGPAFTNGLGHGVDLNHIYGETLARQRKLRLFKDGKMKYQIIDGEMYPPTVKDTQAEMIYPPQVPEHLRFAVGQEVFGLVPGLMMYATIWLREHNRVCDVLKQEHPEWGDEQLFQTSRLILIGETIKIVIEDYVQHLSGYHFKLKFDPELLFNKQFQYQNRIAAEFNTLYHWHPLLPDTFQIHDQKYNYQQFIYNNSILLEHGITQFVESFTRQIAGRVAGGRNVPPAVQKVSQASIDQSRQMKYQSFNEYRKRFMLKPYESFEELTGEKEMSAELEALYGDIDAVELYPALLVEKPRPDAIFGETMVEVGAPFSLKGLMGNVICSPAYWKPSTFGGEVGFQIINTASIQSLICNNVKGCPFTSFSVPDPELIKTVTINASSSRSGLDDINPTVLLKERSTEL
# method.description: Inhibitory activity against human COX-2 expressed in baculovirus infected Sf9 cells
measure.name: IC50

COC(=O)c1ccc(-c2ccsc2-c2ccc(F)cc2)cc1 | > 30 µM
COC(=O)c1cc(-c2ccc(F)cc2)c(-c2ccc(S(N)(=O)=O)cc2)s1 | > 30 µM
NC(=O)c1ccc(-c2ccsc2-c2ccc(F)cc2)cc1 | > 30 µM
O=C(O)c1ccc(-c2ccsc2-c2ccc(F)cc2)cc1 | > 30 µM
CNS(=O)(=O)c1ccc(-c2ccsc2-c2ccc(F)cc2)cc1 | 7.2 µM

Endpoint output: IC50 of "CSc1ccc(-c2ccsc2-c2ccc(F)cc2)cc1" . Value?
> 30 µM

Endpoint output: IC50 of "CS(=O)(=O)c1ccc(-c2ccsc2-c2ccc(F)cc2)cc1" . Value?
0.25 µM

Endpoint output: IC50 of "CC(=O)c1ccc(-c2ccsc2-c2ccc(F)cc2)cc1" . Value?
> 30 µM

Endpoint output: IC50 of "CC(C)c1cc(-c2ccc(S(N)(=O)=O)cc2)c(-c2ccc(F)cc2)s1" . Value?
0.01 µM

Endpoint output: IC50 of "N#Cc1ccc(-c2ccsc2-c2ccc(F)cc2)cc1" . Value?
> 30 µM

Endpoint output: IC50 of "O=Cc1ccc(-c2ccsc2-c2ccc(F)cc2)cc1" . Value?
> 30 µM
